Assay: Cytotoxicity (MTT assay) on Vero cells
Conditions: monkey, Vero cells (normal monkey kidney cells)
reported_property: IC50 at 24 h (µM)

[
  {
    "compound": "NC(=O)c1cc(/C=C/c2ccccc2)ccc1N [Compound 2a, (E)-2-Amino-5-styrylbenzamide]",
    "measured_result": 163
  },
  {
    "compound": "Cc1ccc(S(=O)(=O)Nc2ccc(/C=C/c3ccc(F)cc3)cc2C(N)=O)cc1",
    "measured_result": 191
  }
]

====

Target: β-secretase (Homo sapiens)
Sequence (P56817 46-501): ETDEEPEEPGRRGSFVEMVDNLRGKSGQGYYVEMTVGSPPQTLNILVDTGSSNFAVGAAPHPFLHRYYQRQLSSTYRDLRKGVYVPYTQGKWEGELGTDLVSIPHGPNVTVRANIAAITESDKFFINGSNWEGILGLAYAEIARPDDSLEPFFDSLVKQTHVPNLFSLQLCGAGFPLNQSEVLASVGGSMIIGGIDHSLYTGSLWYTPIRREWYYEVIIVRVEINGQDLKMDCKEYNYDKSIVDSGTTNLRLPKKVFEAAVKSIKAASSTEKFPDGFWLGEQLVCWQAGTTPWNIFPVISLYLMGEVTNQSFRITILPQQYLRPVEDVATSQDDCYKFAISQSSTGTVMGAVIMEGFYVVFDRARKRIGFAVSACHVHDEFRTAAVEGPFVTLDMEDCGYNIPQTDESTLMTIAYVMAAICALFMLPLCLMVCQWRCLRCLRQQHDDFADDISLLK
reported_property: Ki (µM)

[
  {
    "compound": "NC(=O)c1cc(/C=C/c2ccccc2)ccc1N [Compound 2a, (E)-2-Amino-5-styrylbenzamide]",
    "measured_result": 3.44
  }
]
